biological target: T1, human Programmed Death-1 (PD-1) expressed on the cell surface (human, UniProt Q15116 25-288); test: cell binding, HEK293 cells expressing human PD-1, fluorescent anti-mouse secondary
T1 construct: whole, on cells; also called CD279; Human PD-1 Expressed on HEK293 Surface
T1 sequence (Q15116 25-288): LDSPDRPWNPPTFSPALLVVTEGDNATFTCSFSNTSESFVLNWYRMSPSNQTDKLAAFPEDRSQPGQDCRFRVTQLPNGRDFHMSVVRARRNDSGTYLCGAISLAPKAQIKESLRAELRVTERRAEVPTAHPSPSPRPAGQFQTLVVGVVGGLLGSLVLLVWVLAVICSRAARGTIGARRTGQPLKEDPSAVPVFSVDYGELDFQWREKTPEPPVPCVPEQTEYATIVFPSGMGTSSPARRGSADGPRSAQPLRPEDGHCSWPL
measuredQuantity: binding result

100392_H4VH9_100393_H4VK6 (antibody, V domains shown, Mouse variable regions; cloned into pFUSE-CHIg-mG1 (murine IgG1 Fc), expressed in HEK293) VH: EVQLQESGPELVKPGASVKIPCKASGYTFTDYNVDWVKQSHGKSLEWIGDIDPNNGGTFYNQKFKGKATLTVDKSSSTAHMELRSLTSEDTAVYYCVRWRSSMDYWGQGTSVTVSS VL: DIVMTQSPSSLSASLGDRVTISCSASQGISNYLNWYQQKPDGTVKLLIYYTSNLHSGVPSRFSGSGSGTDYSLTISDLAPEDIATYYCQQYSYLPWTFGGGTKLEIK :: binds
100394_D5VH9_100395_D5VK7 (antibody, V domains shown, Mouse variable regions; cloned into pFUSE-CHIg-mG1 (murine IgG1 Fc), expressed in HEK293) VH: EVQLQESGPELVKPGASVKIPCRASGYIFTDYNMDWVKQSHGKSLEWIGDIDPNNGGTIYNQKFKDKTTLTVDKSSRTAYMELRSLTSEDTAVYYCARWRSSMDYWGQGTSVTVSS VL: DIVMTQTPSSMSASLGDRVTISCSASQGISNYLNWYQQKPDGTVKLLIYYTSSLHSGVPSRFSGSGSGTDYSLTISNLEPEDIATYYCQQYSYLPWTFGGGTKLEIK :: binds
100392_C5VH6_100393_C5VK7 (antibody, V domains shown, Mouse variable regions; cloned into pFUSE-CHIg-mG1 (murine IgG1 Fc), expressed in HEK293; also called 392C5A) VH: EVQLQESGPELVKPGASVKIPCKASGYTFTDYNMDWVKQSHGKSLEWIGDIDPNSGGSIYNQKFKGKATLTVDKSSRTVYMELRSLTSEDTAVYYCARWRSSMDYWGQGTSVTVSS VL: DIVMTQSPSSLSASLGDRVTISCSASQGISHYLNWYQQKPDGTVKLLIYYTSSLHSGVPSRFSGSGSGTDYSLTIRNLEPEDIATYYCQQYSELPWTFGGGTKLEIK :: binds

Where do these numbers come from? They come from patent US20160251436A1.
